- System: IGROV1 ovarian
- procedure-details: NCI-60 one-dose screen, 48 h (100 = growth as untreated, 0 = no growth, -100 = all killed)
- assay-conditions: 10 µM unless noted
The panel holds about 83,000 compounds, 20% with a hit somewhere; the sample as a whole holds those more often.
Some compounds, each annotated with its measured growth.

| compound | unit-abbreviation | growth |
| --- | --- | --- |
| O=C(O)c1ccc(-c2nn(-c3ccc(C(=O)O)cc3)cc2CNc2ccc(Br)cc2)cc1 | % | 115 |
| COc1cc2ncnc(-n3ncc4cc(NC(=O)Nc5ccc(Cl)c(C)c5)ccc43)c2cc1OC | % | 96.2 |
| CC(=O)Nc1ccc(C(=O)/C=C/c2ccc(N(C)C)cc2)cc1 | % | 95.4 |
| Cc1ccc(CC(=O)O)c(C)c1 | % | 112 |
| Nc1nc(-c2cccc(Br)c2)cc(-c2cc3ccccc3oc2=O)n1 | % | 67.2 |
| CCCNC(=O)Oc1ccc(/C(=C(/C)Cc2ccc(OC)cc2)c2ccc(OCCN3CCCC3)cc2)cc1 | % | 81.9 |
| Cc1c(CN(C)C)cc(C(C)C)cc1C(C)C | % | 119 |
| O=C(Nn1cnc2ccccc21)N1CCCC1 | % | 39.4 |
| CCCCCCCCc1ccc(OCCOCC[N+](C)(C)CC)cc1 (tested in a mixture with another compound) | % | 33.8 |
| N=C(N)N=Nc1ccc(NN=C(N)N)cc1 | % | 99.8 |
| COc1cc(-c2nn(-c3ccc(NC(=O)Nc4ccc(Cl)c(Cl)c4)cc3)cc2-c2ccncc2)ccc1Cl | % | 36.9 |
| O=C(Nc1cccc(Cn2c(=O)[nH]c3ccc(Oc4ncccn4)cc3c2=O)c1)c1cccc(F)c1 | % | 78.2 |
| O=C(CN1C(=O)NC(c2ccccc2)(c2ccccc2)C1=O)c1ccc(N2CCCC2)cc1 | % | 85.5 |
| CCc1ccc(C(=Nc2ccc(N(C)C(=O)CN3CCN(C)CC3)cc2)c2c(O)[nH]c3ccc(C(=O)OC)cc23)cc1 | % | -65.4 |
| O=C(O)CC1Cc2ccccc2C1C(=O)O (stereo not given) | % | 110 |
| C/C=C(/C)C(=O)OC1C=C(CO)C(=O)C(OC(=O)/C(C)=C\C)C1C(C)C (stereo not given) | % | -77 |
| CC(=N\N=C(N)N)/C(=N/N=C(N)N)c1ccccc1 | % | 91.4 |
| CC(=O)OC1CC2C3CCC4C[C@@H](NC(=O)C=C(C)C)CC[C@]4(C)C3CC[C@]2(C)[C@H]1C(C)N(C)C (stereo not given in full) | % | 33.6 |
| O=S(=O)(Cc1cccc2c(CS(=O)(=O)c3ccc(Cl)cc3)cccc12)c1ccc(Cl)cc1 | % | 91.4 |
| COc1cc(CNC(=O)CCCC/C=C/C(C)C)ccc1OCc1nnc(Nc2ccccc2F)o1 | % | 58.4 |
